- EXPERIMENT SUMMARY: Henry solubility constant Hcp at 293 K (mol/(m3 Pa))
- PROTOCOL CONDITIONS: reference: Tremp et al. (1993)
RECORDED ENDPOINT: Henry solubility constant Hcp at 293 K
Format: numeric value only, no unit, no commentary.

1. COc1ccc(O)c([N+](=O)[O-])c1 [4-methoxy-2-nitrophenol] : 5.3
2. Cc1cc(O)ccc1[N+](=O)[O-] [3-methyl-4-nitrophenol] : 620
3. O=[N+]([O-])c1ccc(O)c([N+](=O)[O-])c1 [2,4-dinitrophenol] : 110
4. O=[N+]([O-])c1ccc(F)cc1O [5-fluoro-2-nitrophenol] : 0.5
5. Cc1ccc(O)cc1 [1-hydroxy-4-methylbenzene] : 13
6. Cc1ccccc1O [1-hydroxy-2-methylbenzene] : 7.1
7. Cc1ccc(O)c([N+](=O)[O-])c1 [4-methyl-2-nitrophenol] : 0.67
8. CCC(C)c1ccc(O)c([N+](=O)[O-])c1 (configuration not stated) [4-(1-methylpropyl)-2-nitrophenol] : 0.1

So for O=[N+]([O-])c1ccc(O)cc1 [4-nitrophenol] , the logged Henry solubility constant Hcp at 293 K turned out to be 770

---

Each entry below carries its reported Henry solubility constant Hcp at 293 K.
- EXPERIMENT SUMMARY: Henry solubility constant Hcp at 293 K (mol/(m3 Pa))
- PROTOCOL CONDITIONS: reference: Tremp et al. (1993)

1. O=[N+]([O-])c1ccccc1O : 0.77
2. Cc1cccc([N+](=O)[O-])c1O : 0.29

So for "Cc1ccc([N+](=O)[O-])c(O)c1" , the logged Henry solubility constant Hcp at 293 K turned out to be 0.77

Sourced from Sander's compilation of Henry's law constants (doi:10.1007/bf00479396)
